MEASUREMENT_NAME: melting point

- COMPOUND: "COC(=O)C(O)c1ccc(Cl)cc1 (stereo not given)"
  MEASUREMENT_NAME: "melting point"
  MEASURED_VALUE: "55 °C"
- COMPOUND: "CCCCCc1nc(O)c(-c2ccccc2)s1"
  MEASUREMENT_NAME: "melting point"
  MEASURED_VALUE: "128 to 130 °C"

What value of melting point has been reported for the following compound? "CCn1c(=O)c2[nH]c(/C=C/c3ccc(OC)c(OC)c3)nc2n(CC)c1=O" 208 to 211 °C

Also "CN(C)C(=O)N[C@H]1CC[C@H](CCN2CCN(c3nccc4c3CCO4)CC2)CC1" , if possible. 260 °C

Also CC(C)(C)OC(=O)NCC(=O)N1[C@@H](C(=O)OC(C)(C)C)C[C@H](C(=O)O)[C@H]1c1ccccc1 (racemic) , if possible. 105 °C

Also CC1(C)SC(=S)N(Cc2ccco2)C(=O)C1NC(=O)c1ccccc1 (stereo not given) , if possible. 168 to 169 °C

---

MEASUREMENT_NAME: melting point

The examples below pair each entry with its known result.
- COMPOUND: "CCCNC(=O)c1nc(CCl)n(-c2ccc(Cl)cc2C(=O)c2ccccc2Cl)n1"
  melting point: "110 to 113 °C"
- COMPOUND: "CCC(O)(c1ccc(OCc2cccc(C)n2)cc1)c1cc(C)ccc1C (centres undefined)"
  melting point: "107 to 108 °C"
- COMPOUND: "O=P(O)(O)Cc1ccc(CS(=O)(=O)c2ccccc2)cc1"
  melting point: "> 280 °C"
- COMPOUND: "CC(=O)N(CCOc1ccc(CC2SC(=O)NC2=O)cc1)c1ncccn1 (centres undefined)"
  melting point: "137 °C"
- COMPOUND: "CC(C)C(C)(NC(c1ccccc1)c1ccccc1)P(O)O (centres undefined)"
  melting point: "177 °C"
- COMPOUND: "COc1ccc(C(=O)Oc2ccc(C(=O)O)c(F)c2)cc1C12CC3CC(CC(C3)C1)C2"
  melting point: "254 to 256 °C"
- COMPOUND: "CC1=C(C#Cc2ccccc2/C=C/C(C)=C/C(=O)O)C(C)(C)CCC1"
  melting point: "194 to 196 °C"
- COMPOUND: "CCOC(=O)C(C(=O)Nc1ccc(OC)cc1)(c1ccccc1)c1ccccc1"
  melting point: "89 to 91 °C"

What value of melting point has been reported for the following compound? "COC(=O)Cc1ccc(NC(=O)Nc2ccccc2C)c(OC)c1" 167 to 168 °C

Also "CC(C=O)=CC=CC(C)=CCO" , if possible. 42 to 45 °C

Also "C[C@H]1C[C@@](O)(c2cccc(Sc3cc4c(cc3F)N(C)C(=O)CC4)c2)CCO1" , if possible. 90 to 92 °C

Also NC(=O)[C@@H]1[C@H](Nc2nc(Nc3ccc4c(c3)CCC(NCC(F)F)CC4)ncc2Cl)[C@H]2C=C[C@@H]1C2 (some centres undefined) , if possible. 128 °C

Also Oc1cc2c(cc1CCCOc1ccc3ccccc3c1-c1nnn[nH]1)OC(CCc1ccccc1)C2 (centres undefined) , if possible. 121 to 123 °C

Also "Nc1nc(Oc2ccc(C(F)(F)F)cc2Cl)ccc1[N+](=O)[O-]" , if possible. 80 to 84 °C

Also "CCc1nc2c(N)nc3ccccc3c2n1CCCCNC(=O)C1CCCCC1" , if possible. 202 °C

---

# melting point per entry

- GIVEN_SMILES: "Clc1cccc(Oc2nnc(Cc3ccncc3)c3ccccc23)c1"
  melting point: "143 to 145 °C"

What value of melting point has been reported for the following compound? "O=C1c2cccc3cc4ccccc4c(c23)C(=O)N1CCNCCN1C(=O)c2cccc3cc4ccccc4c(c23)C1=O" 271 °C

Also "Nc1cn(-c2cccnc2)nc1Cl" , if possible. 70 to 72 °C

Also "Cc1sc2c(Br)c3ccccc3c(-c3cc(Br)c(O[C@@H](CCc4ccccc4)C(=O)O)c(Br)c3)c2c1C" , if possible. 176 to 177 °C

Also "Nc1ccc2c(c1)ncn2-c1cccc(-c2cccnc2)c1" , if possible. 172 to 175 °C

Also "Nc1ncnc2[nH]c(=S)sc12" , if possible. > 370 °C

---

MEASUREMENT_NAME: melting point

- GIVEN_SMILES: "N#Cc1ccc(NC(=O)c2cccc(OCc3cccc(F)c3F)c2)cc1"
  MEASUREMENT_NAME: "melting point"
  MEASURED_VALUE: "149 to 150 °C"
- GIVEN_SMILES: "Cc1cc(C(F)(F)F)nc(-c2ccc(O)cc2)n1"
  MEASUREMENT_NAME: "melting point"
  MEASURED_VALUE: "131 to 132 °C"
- GIVEN_SMILES: "Cc1cc(OCc2sc(-c3ccc(C(F)(F)F)cc3)nc2C)ccc1OCC(=O)O"
  MEASUREMENT_NAME: "melting point"
  MEASURED_VALUE: "174 to 176 °C"
- GIVEN_SMILES: "CC(=O)NCCc1ccc(C(=O)c2cccc(F)c2)cc1"
  MEASUREMENT_NAME: "melting point"
  MEASURED_VALUE: "78 °C"

Please find the next compound below.
What value of melting point has been reported for the following compound? "Cn1ncc2[nH]c3ccc(-c4cccc(O)c4)cc3c(=O)c21" > 250 °C

---

# melting point per entry

- GIVEN_SMILES: "CCOC(=O)c1cn(-c2ccccc2)nc1OCc1ccccc1"
  melting point: "113 to 114 °C"
- GIVEN_SMILES: "O=C(NO)[C@H](CNS(=O)(=O)c1ccc(OCc2ccccc2)cc1)N1CCCCC1"
  melting point: "126 °C"
- GIVEN_SMILES: "NC(=O)Nc1ccc2c(c1)C(=O)C1(CC1)O2"
  melting point: "250 to 252 °C"
- GIVEN_SMILES: "CCCC(=O)N(Cc1ccc(-c2ccccc2-c2nc(=O)o[nH]2)cc1)c1sc(C)cc1C(=O)OC"
  melting point: "156 to 157 °C"

What value of melting point has been reported for the following compound? "O=C(O)COc1ccc(-c2noc3ccccc23)c(Cl)c1Cl" 166 to 167 °C

---

# melting point per entry

What value of melting point has been reported for the following molecule? "CCOc1ccc(-c2ncc(C#N)cn2)cc1" 153 °C

Also "C[C@@H]1c2ccccc2-c2ccc(Cl)cc2N1C(=O)c1ccc(O)cc1" , if possible. 274 to 276 °C

Also Cc1ccc(C[C@@H](NC(=O)c2cccc3c2C=CCCC3)[C@@H](O)c2ccc(F)cc2)cc1OC(F)(F)C(F)F (racemic) , if possible. 168 to 169 °C

Also O=C(O)C1=CSC2C(=CC3=CN4CCCCCC4N3)C(=O)N12 (stereo not given) , if possible. > 250 °C

Also "CCOc1nc(NCc2ccco2)nc(Nc2cccc(CN3CCOCC3)c2)n1" , if possible. 69 to 71 °C

---

# melting point per entry

- COMPOUND: "CC(=O)c1ccc2c(c1)c(=O)c(C(=O)O)cn2Cc1ccc(F)cc1"
  melting point: "206 to 208 °C"
- COMPOUND: "COc1cc(C2c3cc4c(cc3C(NC3=C(C)C(=O)N(C)C3=O)C3COC(=O)C23)OCO4)cc(OC)c1O (stereo unspecified)"
  melting point: "172 to 176 °C"

What value of melting point has been reported for the following compound? "CS(=O)(=O)c1ccc(N2CCC(N3CCCC3)CC2)cc1" 166 to 170 °C

Also "CCS(=O)(=O)N[C@H](C(=O)NCc1ccc(O)c(OC)c1)C(C)C" , if possible. 49 to 50 °C

Also "CCCCOc1ccc(-c2nc(CCOS(=O)(=O)c3ccc(C)cc3)c(C)o2)cc1" , if possible. 84.9 °C

Also "CCCOc1cc(C(=O)CCC(=O)O)ccc1OCC" , if possible. 116 to 117 °C

Also "Cc1c(Cl)cccc1S(=O)(=O)C[N+](=O)[O-]" , if possible. 78 to 79 °C

Also "N#Cc1ccc(NC2CCN(Cc3cc(F)c(F)c(F)c3)CC2)nn1" , if possible. 185 °C

Also "CCOC(=O)C1=C(CF)NC(CF)=C(C(=O)OCC)C1c1cccc([N+](=O)[O-])c1" , if possible. 113 to 114 °C

Also COc1ccc(C(=O)Nc2c(C)c(C)c3c(c2C)C(c2ccc(F)cc2)C(C)(C)O3)cc1 (stereo unspecified) , if possible. 191 to 194 °C

Also "COc1ccc(NCCCN)c2c1C(=O)c1ccccc1C2=O" , if possible. 108 to 110 °C

Also "CCC(=O)OCOC(=O)Oc1ccc([N+](=O)[O-])cc1" , if possible. 35 to 36 °C

Also "COc1ccn2cc(-c3ccc(OC)c(OC)c3)nc2c1" , if possible. 142 °C

Also "CCN1CCN(CC/C=C/c2ccc3c(Nc4ccc(Sc5nccn5C)c(Cl)c4)c(C#N)cnc3c2)CC1" , if possible. 194 to 204 °C

Also N#Cc1ccc(COC2COc3nc([N+](=O)[O-])cn3C2)cc1 (stereo unspecified) , if possible. 166 to 167 °C

Also "CCCCNC(=O)Nc1cc(Cl)ccc1C(=O)NCC1CCN(C(c2ccccc2)c2ccccc2)CC1" , if possible. 195 to 197 °C

Also "CC(C)=CCNC(=N)N[N+](=O)[O-]" , if possible. 134 to 136 °C

Also "CCCc1nc(-n2cccc2)c(C(=O)OCC)[nH]1" , if possible. 134 to 135 °C

Also "CCOC(=O)N1C(=O)[C@H](O)[C@@H]1c1ccccc1" , if possible. 112 to 113 °C

Also "COCCNc1nc(Cc2ccc(OC)c(OC)c2)nc2sc(C#N)c(C)c12" , if possible. 94 to 97 °C

Also "CC(C)(C)[Si](C)(C)OCCn1ccc([N+](=O)[O-])n1" , if possible. 76 to 77 °C
